# Test system: Schistosoma mansoni schistosomula (LE)
# RUN DESCRIPTION: XTT viability relative to DMSO control; higher = more viable (less active)
# CONDITIONS: 72 h; 10 µM
REPORTED METRIC: XTT viability (%)
Form entry: value (%) — number only.

- Clc1ccc(Cl)c(CO[C@H]2CCCC[C@@H]2n2ccnc2)c1: 109
- CCCNC(=O)N1CCC2(CC1)CC(=O)c1cc(C)ccc1O2: 102
- Cc1cc(C(=O)Nc2cnn(Cc3ccc(Cl)cc3Cl)c2)no1: 91.7
- N#Cc1nc(-c2ccccc2F)oc1NCCc1ccccc1: 94
- CC(=O)N1CCN(c2ccc(Oc3ccc(Cl)cc3O)cc2)CC1: 89.7
- Cc1ccc(S(=O)(=O)Nc2ccc(CN3CCN(C(=O)c4cccc(C#N)c4)CC3)cc2)cc1: 131
- COc1ccc(-c2nc(-c3cccc(NC(=O)Cc4ccc(F)cc4)c3)no2)cc1OC: 137
- COc1cc(C2=NCCN2)cc2cc(-c3ccc(C4=NCCN4)cc3)oc12: 4.86

Query: Returns the measured XTT viability for the input molecule. Input: `CCCCS(=O)(=O)Nc1ccc2cnn(C)c2c1`
Result: 141

Query: Returns the measured XTT viability for the input molecule. Input: CC1CCCCN1C(=O)NCCc1coc(-c2ccc(F)cc2)n1 (stereo unspecified)
Result: 131

Query: Returns the measured XTT viability for the input molecule. Input: `O=C(NCCc1ccn(-c2ccccc2)n1)C1CCCCC1`
Result: 74.1
